- run_description: Stability in Liver Microsomes (rat)
- Assay type: in vitro ADME
- condition_description: 1 μM, 0.5 mg protein/mL, NADPH, 60 minutes, 37° C., pH 7.4
readout_label: Stability in Liver Microsomes (% remaining after 1 hour incubation) Rat (%)

# molecule, reported_value
rows = [
    ("CCC1CCC(c2csc(N(CCC(=O)O)Cc3ccc(C)s3)n2)CC1 (stereo not drawn)", 52),
    ("Cc1ccc(CN(CCC(=O)O)c2nc(C3CCC(C)(C)CC3)cs2)s1", 64),
]

(1) CC(C)(C)[C@H]1CC[C@H](c2csc(N(CCC(=O)O)Cc3cccs3)n2)CC1 [Reference Compound D, reference compound]
(2) Cc1ccc(CN(CCC(=O)[O-])c2nc(C3CCC(C4CCCCC4)CC3)cs2)s1.[Na+] (stereo not drawn)
(3) Cc1ccc(CN(CCC(=O)[O-])c2nc(C3CCC(c4ccc(F)cc4)CC3)cs2)s1.[Na+] (stereo not drawn)
Inquiry: Ascending sort, Stability in Liver Microsomes (% remaining after 1 hour incubation) Rat. The labels, placed in the requested order, form the answer.
Reply text: 1, 3, 2

###

- run_description: Stability in Liver Microsomes (monkey)
- Type: in vitro ADME
- condition_description: 1 μM, 0.5 mg protein/mL, NADPH, 60 minutes, 37° C., pH 7.4
readout_label: Stability in Liver Microsomes (% remaining after 1 hour incubation) Monkey (%)

# molecule, reported_value
rows = [
    ("Cc1ccc(CN(CCC(=O)O)c2nc([C@H]3CC[C@H](c4ccccc4)CC3)cs2)s1 [Example 38]", 70),
]

(1) Cc1cc(CN(CCC(=O)O)c2nc(C3CCC(C(C)(C)C)CC3)cs2)c(C)s1 (centres unmarked) [Example 25]
(2) Cc1ccc(CN(CCC(=O)[O-])c2nc(C3CCC(c4ccc(F)cc4)CC3)cs2)s1.[Na+] (centres unmarked) [Example 61]
Inquiry: From the items above, decide which of 1 and 2 has the lower Stability in Liver Microsomes (% remaining after 1 hour incubation) Monkey reading. Please reply using the label of the selected record.
Reply text: 2
(2: 13%, 1: 77%)

###

- run_description: Pharmacokinetic screening in rats (plasma and brain)
- condition_description: male, Sprague Dawley, rat, plasma, po, 5 mg/kg, Plasma - 2 hours (ng/mL), 5 mg/kg PO, 2 hour time point
readout_label: concentration at 2 h (ng/mL)

# compound, unit_descriptor, concentration at 2 h
data = [
    ("CC(C)c1ccc(-c2csc(N(CCC(=O)[O-])Cc3cccs3)n2)cc1.[Na+] [Reference Compound A, reference compound]", "ng/mL", 3850),
    ("CCc1ccc(CN(CCC(=O)O)c2nc(CC3CCCC3)cs2)s1", "ng/mL", 590),
    ("Cc1ccc(CN(CCC(=O)O)c2nc(C3(C)CCC(C(C)C)CC3)cs2)s1 (stereo not drawn)", "ng/mL", 486),
]

(1) Cc1ccc(CN(CCC(=O)[O-])c2nc(C3(c4ccccc4)CCCCC3)cs2)s1.[Na+]
(2) Cc1cc(CN(CCC(=O)O)c2nc(C3CCC(C(C)(C)C)CC3)cs2)c(C)s1 (stereo not drawn)
(3) CCc1ccc(CN(CCC(=O)O)c2nc(C3CC4CCCCC4C3)cs2)s1 (stereo not drawn)
Inquiry: List from greatest to least concentration at 2 h. The labels, placed in the requested order, form the answer.
Reply text: 2, 3, 1
